experiment: in vivo; design: species or system SD rats; conditions: male, SD, rat, in vivo, iv, 1 mg/kg, IV 1 mg/kg, 2 hr, mean; read-out: plasma concentration of 105

[
  {
    "compound": "CCN1CCN(C(=O)C2C3CCC(O3)C2C(=O)O)CC1 (stereo not shown) [Compound 105]",
    "unitText": "ng/mL",
    "concentration at 2 hr": 33.4
  }
]

###

assay: Pharmacokinetic study of 151 (iv, oral) in SD rats: 151 and 100 in plasma; assay type: in vivo; details: male, Sprague-Dawley, rat, in vivo, iv, 1 mg/kg, 151 IV 1.0 mg/kg, SD rats, 3.0 h, mean

[
  {
    "compound": "COC(=O)C1C2CCC(O2)C1C(=O)N1CCN(C)CC1 (stereo not shown)",
    "unitText": "ng/mL",
    "concentration at 3 h": 33.8
  }
]

###

assay: Pharmacokinetic study of 153 (iv, po) in SD rats: 153 and endothal in plasma, liver, brain; format: in vivo, SD rats; conditions: female, Sprague-Dawley, rat, in vivo, po, 1.25 mg/kg, PO 1.25 mg/kg, 2 hr, individual rats; read-out: 153 plasma concentration
resultType: concentration at 2 hr (ng/mL)

[
  {
    "compound": "CCCOC(=O)C1C2CCC(O2)C1C(=O)N1CCN(C)CC1 (stereo not shown) [Compound 153]",
    "valueObserved": 41.2
  }
]

###

assay: in vivo; conditions: male, SD, rat, iv, 1.4 mg/kg, liver concentration of Endothal
resultType: concentration at 2 hr

[
  {
    "compound": "O=C(O)C1C2CCC(O2)C1C(=O)O (stereo not shown) [Endothal]",
    "valueObserved": "998 ng/g"
  }
]

###

test: Pharmacokinetic study of 153 (iv, po) in SD rats: 153 and endothal in plasma, liver, brain; format: in vivo, SD rats; conditions: female, SD, rat, in vivo; plasma, 153 1.25 mg/kg PO, individual rats; read-out: MRT (0 t)
resultType: MRT

[
  {
    "molecule": "CCCOC(=O)C1C2CCC(O2)C1C(=O)N1CCN(C)CC1 (stereo not shown)",
    "valueObserved": "1.04 h"
  }
]

###

test: in vivo; conditions: male, SD, rat, iv, 1.4 mg/kg, Liver-plasma concentration ratio of 100

[
  {
    "molecule": "CN1CCN(C(=O)C2C3CCC(O3)C2C(=O)O)CC1 (stereo not shown)",
    "Kp at 0.25 hr": 4.1
  }
]

###

assay: Pharmacokinetic study of 153 (iv, po) in SD rats: 153 and endothal in plasma, liver, brain; format: in vivo, SD rats; conditions: female, Sprague-Dawley, rat, in vivo, po, 1.25 mg/kg, PO 1.25 mg/kg, 1 hr, mean

[
  {
    "molecule": "CCCOC(=O)C1C2CCC(O2)C1C(=O)N1CCN(C)CC1 (stereo not shown)",
    "unitText": "ng/mL",
    "concentration at 1 hr": 126
  }
]

###

assay: Pharmacokinetic study of 151 (iv, oral) in SD rats: 151 and 100 in plasma; assay type: in vivo; settings: male, Sprague-Dawley, rat, in vivo, iv, 1 mg/kg, plasma, 151 IV 1.0 mg/kg, SD rats, individual rats; read-out: AUC0-∞ of 151

[
  {
    "compound": "COC(=O)C1C2CCC(O2)C1C(=O)N1CCN(C)CC1 (stereo not shown)",
    "AUC(0-inf) [ng·h/mL]": 1310
  }
]

###

test: in vivo; set-up: species or system SD rats; conditions: male, SD, rat, in vivo, iv, 1 mg/kg, IV 1 mg/kg, 1 hr, individual; read-out: liver concentration of 105

[
  {
    "compound": "CCN1CCN(C(=O)C2C3CCC(O3)C2C(=O)O)CC1 (stereo not shown)",
    "concentration at 1 h": "576 ng/g"
  }
]

###

test: in vivo; type: in vivo, SD rats; conditions: female, SD, rat, in vivo, iv, 1.25 mg/kg, MRT (0 t)
resultType: MRT (min)

[
  {
    "compound": "CCCOC(=O)C1C2CCC(O2)C1C(=O)N1CCN(C)CC1 (stereo not shown)",
    "resultType": "MRT",
    "valueObserved": 40
  }
]

###

assay: in vivo; conditions: male, SD, rat, iv, 1.4 mg/kg, liver concentration of 100

[
  {
    "molecule": "CN1CCN(C(=O)C2C3CCC(O3)C2C(=O)O)CC1 (stereo not shown)",
    "concentration at 1 hr": "1360 ng/g"
  }
]

###

experiment: in vivo; parameters: species or system SD rats; details: male, SD, rat, in vivo, iv, 1 mg/kg, IV 1 mg/kg, 2 hr, mean; read-out: Liver-plasma concentration ratio of 105
resultType: Kp at 2 h

[
  {
    "molecule": "CCN1CCN(C(=O)C2C3CCC(O3)C2C(=O)O)CC1 (stereo not shown)",
    "resultType": "Kp at 2 h",
    "valueObserved": 4.14
  }
]

###

test: in vivo; settings: male, SD, rat, iv, 1.4 mg/kg, liver concentration of Endothal
resultType: concentration at 24 hr (ng/g)

[
  {
    "molecule": "O=C(O)C1C2CCC(O2)C1C(=O)O (stereo not shown) [Endothal]",
    "unitText": "ng/g",
    "valueObserved": 66.9
  }
]

###

assay: Pharmacokinetic study of 151 (iv, oral) in SD rats: 151 and 100 in plasma; format: in vivo; settings: male, Sprague-Dawley, rat, in vivo, iv, 1 mg/kg, 151 IV 1.0 mg/kg, SD rats, 0.083 h, mean

[
  {
    "compound": "COC(=O)C1C2CCC(O2)C1C(=O)N1CCN(C)CC1 (stereo not shown)",
    "concentration at 0.083 h / ng/mL": 1490
  }
]

###

Experiment: in vivo
Set-up: species or system SD rats
Settings: male, SD, rat, in vivo, iv, 1 mg/kg, IV 1 mg/kg, 2 hr, individual; read-out: liver concentration of 105
Description: 105 was dissolved in 4% NaHCO3 in saline for IV administration. The detailed procedure of dosing solution preparation was presented in Appendix I. Thirteen (13) animals were placed on the study. The animals in IV arm were free access to food and water. One extra animal was used for blank liver and plasma generation (5 mL per animal). […] Software: The PK parameters were determined by non-compartmental model of non-compartmental analysis tool, Pharsight Phoenix WinNonlin® 6.2 software. […]
resultType: concentration at 2 h

[
  {
    "compound": "CCN1CCN(C(=O)C2C3CCC(O3)C2C(=O)O)CC1 (stereo not shown) [Compound 105]",
    "resultType": "concentration at 2 h",
    "valueObserved": "99.2 ng/g"
  }
]

###

assay: Pharmacokinetic study of 151 (iv, oral) in SD rats: 151 and 100 in plasma; type: in vivo; details: male, Sprague-Dawley, rat, in vivo, iv, 1 mg/kg, 151 IV 1.0 mg/kg, SD rats, 9.0 h, individual rats

[
  {
    "molecule": "COC(=O)C1C2CCC(O2)C1C(=O)N1CCN(C)CC1 (stereo not shown) [Compound 151]",
    "unitText": "ng/mL",
    "concentration at 9 h": 2.01
  }
]

###

assay: Pharmacokinetic study of 151 (iv, oral) in SD rats: 151 and 100 in plasma; format: in vivo; conditions: male, Sprague-Dawley, rat, in vivo, iv, 1 mg/kg, 151 IV 1.0 mg/kg, SD rats, 0.50 h, individual rats
resultType: concentration at 0.5 h (ng/mL)

[
  {
    "compound": "COC(=O)C1C2CCC(O2)C1C(=O)N1CCN(C)CC1 (stereo not shown) [Compound 151]",
    "unitText": "ng/mL",
    "valueObserved": 760
  }
]

###

assay: Pharmacokinetic study of 151 (iv, oral) in SD rats: 151 and 100 in plasma; format: in vivo; details: male, Sprague-Dawley, rat, in vivo, iv, 1 mg/kg, 151 IV 1.0 mg/kg, SD rats, individual rats; read-out: CL of 151 (converted)

[
  {
    "molecule": "COC(=O)C1C2CCC(O2)C1C(=O)N1CCN(C)CC1 (stereo not shown)",
    "clearance (mL/min/kg)": 12.7
  }
]

###

assay: Pharmacokinetic study of 151 (iv, oral) in SD rats: 151 and 100 in plasma; type: in vivo; conditions: male, Sprague-Dawley, rat, in vivo, iv, 1 mg/kg, 151 IV 1.0 mg/kg, SD rats, mean; read-out: CL of 151 (converted)

[
  {
    "compound": "COC(=O)C1C2CCC(O2)C1C(=O)N1CCN(C)CC1 (stereo not shown) [Compound 151]",
    "clearance (mL/min/kg)": 14.3
  }
]
